Test system: LOX IMVI melanoma
Assay: NCI-60 one-dose screen, 48 h (100 = growth as untreated, 0 = no growth, -100 = all killed)
Conditions: 10 µM unless noted
This is part of a sample that, as a whole, favours compounds with a hit. Of some 83,000 tested, about 20% had one in any assay. Activity calls are given as the source filed them. How the source made its calls: active means growth percent below 10; inactive means the rest.
Entries and their growth values follow.
measured property: growth

- compound: "Fc1cc2[nH]ncc2c2c3c(c(-c4cn[nH]c4C(F)(F)F)nc12)C1CCC3C1 (centres undefined)"
  measured result: "0.44% (active)"
- compound: "O=C1CC(C(F)(F)F)Cc2nc3ccc(Br)cc3cc21 (centres undefined)"
  measured result: "91.1% (inactive)"
- compound: "CCN(CC)c1ccc(/C=C/c2ccc3cc(C)ccc3[n+]2CC)cc1"
  measured result: "-8.32% (active)"
- compound: "Nc1ccc(Cl)c([N+](=O)[O-])c1"
  measured result: "66.9% (inactive)"
- compound: "C[C@@H]1C[C@H]2C(=O)O[C@@H](C)[C@H](NC(=O)[C@H](Cc3cc(F)cc(F)c3)NC(=O)Nc3ccc(Cl)cc3F)C(=O)N3C[C@H](O)C[C@H]3C(=O)N3CCN(C)C[C@H]3C(=O)N[C@@H](C)C(=O)N2C1"
  measured result: "43.4% (inactive)"
- compound: "O=C(N/N=C1\\c2ccccc2-c2cccc(C(=O)O)c21)c1ccc(O)cc1"
  measured result: "98.9% (inactive)"
- compound: "CN(C)Cc1ccc[nH]1"
  measured result: "81.3% (inactive)"
- compound: "CCN(CCO)CCC(=O)c1ccc([N+](=O)[O-])cc1"
  measured result: "98.5% (inactive)"
- compound: "CCC(C)[C@H](NC(=O)NC(=O)NC(=O)CI)C(=O)OC (some centres undefined)"
  measured result: "-79.2% (active)"
- compound: "Cn1cc(-c2noc(-c3cn(C)c4ncc(F)cc34)n2)c2ccccc21"
  measured result: "52.3% (inactive)"
- compound: "Cn1ncc2c(Nc3ccc(O)cc3)nc(Cl)nc21"
  measured result: "95.7% (inactive)"
- compound: "Cn1cc(-c2noc(C(=O)c3cn(C)c4ncc(Br)cc34)n2)c2ccccc21"
  measured result: "96.8% (inactive)"
- compound: "C=C1C(=O)O[C@H]2[C@H]1CC/C(COC(=O)NCc1ccc(Cn3c(=O)sn(-c4ccc(Cl)cc4)c3=O)cc1)=C\\CC[C@@]1(C)O[C@@H]21"
  measured result: "58.4% (inactive)"
- compound: "COc1ccc2c(c1)C(C)Cc1c(Cl)ncnc1N2C (centres undefined)"
  measured result: "-69.2% (active)"
- compound: "COc1cc(-c2cc(-c3ccc(Nc4ncnc5cc(Cl)ccc45)cc3)nc(N3CCCCC3)n2)cc(OC)c1OC"
  measured result: "97.3% (inactive)"
- compound: "CCCCCCCCCCCCCCNC(=O)Nc1ccc(Cl)c(Cl)c1"
  measured result: "7.74% (active)"
- compound: "COCCCNc1nc(NC(=O)c2cc(OC)cc(OC)c2)cc(-c2cccnc2)n1"
  measured result: "94.5% (inactive)"
- compound: "C=C(C)[C@@H]1CC[C@]2(c3ncc(C)o3)CC[C@]3(C)[C@H](CC[C@@H]4[C@@](C)(CCC#N)[C@H](C(=C)C)CC[C@]43C)[C@@H]12"
  measured result: "-83.6% [100 µM] (active)"
- compound: "O=C1CN(Cc2ccc(C(=O)NO)cc2)C(=O)[C@@H](Cc2ccccc2)N1"
  measured result: "111% (inactive)"
